Cited source for all entries: patent US20240132484A1

Reported values of Percentage Inhibition Average 1 μM for individual entries
- Tested on: SARS2
- Format: cell-based, SARS-CoV-2
- run parameters: SARS2, 1 μM
outcome measure: Percentage Inhibition Average 1 μM (%)

[[record]]
molecule = "CCN(CC)CCN(Cc1cc(C)c(Br)s1)Cc1cc(C)c(Br)s1 [SILCS39]"
outcome_measure = "Percentage Inhibition Average 1 μM"
uom = "%"
val = 21.81

[[record]]
molecule = "COCC1=C(C(=O)NCC2CCC2)C(c2cccs2)NC(=O)N1 (stereo not shown) [SILCS56]"
outcome_measure = "Percentage Inhibition Average 1 μM"
uom = "%"
val = 31.59

[[record]]
molecule = "COc1ccc(C2NC(=O)NC(C)=C2C(=O)NC2CCCCCC2)cc1OC (stereo not shown) [SILCS59]"
outcome_measure = "Percentage Inhibition Average 1 μM"
uom = "%"
val = 29.42

[[record]]
molecule = "Cc1cc(CN(CCN(C)C)Cc2ccsc2)oc1C [SILCS27]"
outcome_measure = "Percentage Inhibition Average 1 μM"
uom = "%"
val = "−1.69"

[[record]]
molecule = "COC(=O)c1csc(CN(CCN(C)C)Cc2cccs2)c1 [SILCS29]"
outcome_measure = "Percentage Inhibition Average 1 μM"
uom = "%"
val = 15.78

[[record]]
molecule = "CC1=C(C(=O)NCc2ccccc2)C(c2ccc(C)o2)NC(=O)N1 (stereo not shown) [SILCS69]"
outcome_measure = "Percentage Inhibition Average 1 μM"
uom = "%"
val = 44.23

[[record]]
molecule = "CCN(CC)CCN(Cc1ccc(C)o1)Cc1cccs1 [SILCS24]"
outcome_measure = "Percentage Inhibition Average 1 μM"
uom = "%"
val = 31.47

[[record]]
molecule = "CN(C)CCN(Cc1ccsc1)Cc1ccc(CO)o1 [SILCS9]"
outcome_measure = "Percentage Inhibition Average 1 μM"
uom = "%"
val = "−13.21"

[[record]]
molecule = "CCCCCCCCNC(=O)C1=C(C)NC(=O)NC1c1ccc(OC)c(OC)c1 (stereo not shown) [SILCS65]"
outcome_measure = "Percentage Inhibition Average 1 μM"
uom = "%"
val = 12.85

[[record]]
molecule = "COc1ccc(C2NC(=O)NC(C)=C2C(=O)NCc2ccccc2)cc1OC (stereo not shown) [SILCS48]"
outcome_measure = "Percentage Inhibition Average 1 μM"
uom = "%"
val = 28.31

[[record]]
molecule = "CCN(CC)CCN(Cc1ccccc1)Cc1ccccn1 [SILCS33]"
outcome_measure = "Percentage Inhibition Average 1 μM"
uom = "%"
val = 28.78

[[record]]
molecule = "OC(COc1c(CNCCc2ccccc2F)cccc1N1CCNCC1)CN1CCCC1 (stereo not shown) [SILCS22]"
outcome_measure = "Percentage Inhibition Average 1 μM"
uom = "%"
val = 27.62

[[record]]
molecule = "CC1=C(C(=O)NCC2CCCCC2)C(c2cc(C)c(Br)s2)NC(=O)N1 (stereo not shown) [SILCS68]"
outcome_measure = "Percentage Inhibition Average 1 μM"
uom = "%"
val = 32.72

[[record]]
molecule = "CCN(CC)CCN(Cc1ccccn1)Cc1ccc(C)o1 [SILCS36]"
outcome_measure = "Percentage Inhibition Average 1 μM"
uom = "%"
val = "−14.84"

[[record]]
molecule = "COC(=O)c1csc(CN(CCN(C)C)Cc2ccccc2)c1 [SILCS30]"
outcome_measure = "Percentage Inhibition Average 1 μM"
uom = "%"
val = "−0.21"

[[record]]
molecule = "CC1=C(C(=O)NCC2CCCCC2)C(c2cccs2)NC(=O)N1 (stereo not shown) [SILCS70]"
outcome_measure = "Percentage Inhibition Average 1 μM"
uom = "%"
val = 71.98

[[record]]
molecule = "CN(C)CCN(Cc1ccsc1)Cc1ccco1 [SILCS12]"
outcome_measure = "Percentage Inhibition Average 1 μM"
uom = "%"
val = "−20.43"

[[record]]
molecule = "COc1ccc(CNCCc2ccccc2F)c(OCC(O)CN2CCN(C)CC2)c1 (racemic) [UMB18G]"
outcome_measure = "Percentage Inhibition Average 1 μM"
uom = "%"
val = 40.42

[[record]]
molecule = "COc1ccc(CNCCc2ccccc2F)c(OCC(O)CN2CCCC2)c1 (racemic) [SILCS43]"
outcome_measure = "Percentage Inhibition Average 1 μM"
uom = "%"
val = 81.79

